experiment: Metabolic stability in rat liver S9 fraction assessed as compound remaining measured after 1 hr; format: ADME, subcellular; settings: read-out: Stability
This listing pairs compounds with measured remaining at 1 h.
endpoint_name: remaining at 1 h

compound="CO[C@H]1CC[C@H](Nc2ncc(C(N)=O)c(N[C@@H]3CCCC(F)(F)C3)n2)CC1 (mixture of isomers)" value=1%
compound=CO[C@H]1CCC[C@@H](Nc2nc(N[C@H]3CC[C@H](OC)CC3)ncc2C(N)=O)C1 value=47%
compound=NC(=O)c1cnc(NC23CC(C2)C3)nc1N[C@@H]1CCC[C@H](O)C1 value=75%
compound=CC(C)(C)Nc1ncc(C(N)=O)c(N[C@@H]2CCC[C@H](O)C2)n1 value=98%
compound=NC(=O)c1cnc(NC2CCCCC2)nc1N[C@@H]1CCC[C@H](O)C1 value=1%
